# Test system: L1210 leukemia ip in BDF1 mice, survival T/C
# measurement_notes: NCI In Vivo Anticancer Drug Screen. Data for tumor model L1210 Leukemia (intraperitoneal) in B6D2F1 (BDF1) mice
# assay_conditions: endpoint: mean survival time; dose: 400.0 mg/kg/injection; schedule: Q01DX009 (ip); vehicle: saline with Tween-80; higher = longer survival
Inconclusive results and toxic doses are left out.
For each record, write down the corresponding T/C.

Data request, read-out T/C, for "NN1C(=O)c2ccccc2C1=O"
92 % of control

Likewise for "Cc1cnc(C#N)c(Cl)n1" ?
88 % of control

Likewise for "Cc1cccc(NC(=O)NCCOC(=O)OCCNC(=O)Nc2cccc(C)c2C)c1C" ?
97 % of control

Likewise for "C(=N\n1cnnc1)/c1ccccc1/C=N/n1cnnc1" ?
89 % of control

Likewise for "CC(=O)OCc1cc2ccccc2nc1C" ?
98 % of control

Likewise for "COc1cc([N+](=O)[O-])ccc1NC(=O)Cc1ccccc1" ?
96 % of control

Likewise for "C[Si](C)(C)Oc1cccc([Si](C)(C)C)c1" ?
92 % of control

Likewise for "C#CCn1c2ccccc2c2ccccc21" ?
96 % of control

Likewise for "CC(=O)Oc1c(Cl)cc(Cl)cc1Cl" ?
100 % of control

Likewise for "COc1ccccc1NC(=O)Nc1cccc(C(C)=O)c1" ?
100 % of control

Likewise for COc1ccc(OC)c(C(Nc2ccc3cn[nH]c3c2)P(=O)(c2ccccc2)c2ccccc2)c1 (stereo unspecified) ?
97 % of control

Likewise for CC(=O)OC(c1ccccc1)C(C)C(OC(C)=O)(C(F)(F)F)C(F)(F)F (stereo unspecified) ?
100 % of control

Likewise for COC(=O)C1CC2C(CCC3C(C)(C(=O)OC)CCCC23C)C(=O)C1(O)C(C)C (stereo unspecified) ?
91 % of control

Likewise for "Nc1ncc(Br)cc1Br" ?
116 % of control

Likewise for CCOC(=O)C1CC(C)=C(C)CC1C(=O)O (stereo unspecified) ?
92 % of control

Likewise for "O=C(O)/C(Cc1cnc2ccccc2n1)=N\O" ?
93 % of control

Likewise for O=C(NNc1ccccc1)C(O)C(O)C(O)C(O)CO (stereo unspecified) ?
104 % of control

Likewise for COc1ccc(CSSP(=S)(OC)c2ccc(OC)cc2)cc1 (stereo unspecified) ?
88 % of control

Likewise for "COC(OC)c1[nH]c(=S)[nH]c(=O)c1Cc1ccc(C)c(C)c1" ?
87 % of control

Likewise for C=CC1CN(CCc2cc3ccccc3[nH]2)CCC1CC(=O)OCC (stereo unspecified) ?
97 % of control

Likewise for "O=S1(=O)CCCC1=C(c1ccccc1)c1ccccc1" ?
107 % of control

Likewise for "Cc1cc(Cl)cc([N+](=O)[O-])c1" ?
95 % of control

Likewise for "O=C(O)c1c[nH]n2c(=S)ncnc12" ?
101 % of control

Likewise for "Cc1ccc(C)c(Br)c1C" ?
101 % of control

Likewise for "COc1cc(/C=N/NC(=O)c2ccncc2)cc(OC)c1OC" ?
98 % of control

Likewise for CC(Br)C(=O)Nc1ccccc1 (stereo unspecified) ?
90 % of control

###

For each record, write down the corresponding T/C.
# Tested on: L1210 leukemia ip in BDF1 mice, survival T/C
# measurement_notes: NCI In Vivo Anticancer Drug Screen. Data for tumor model L1210 Leukemia (intraperitoneal) in B6D2F1 (BDF1) mice
# assay_conditions: endpoint: mean survival time; dose: 200.0 mg/kg/injection; schedule: Q01DX009 (ip); vehicle: saline with Tween-80; higher = longer survival
Inconclusive results and toxic doses are left out.

Data request, read-out T/C, for "CCOC(=O)c1cnc(NN)nc1NCc1ccccc1"
98 % of control

Likewise for "N#Cc1ccc(C#N)cc1" ?
104 % of control

Likewise for CCC(C(N)=O)C1=CCCCC1 (stereo not drawn) ?
93 % of control

Likewise for "Cc1ccc(NC(=O)OCCOc2ccc(Cl)cc2Cl)cc1[N+](=O)[O-]" ?
104 % of control

Likewise for "CC(C)=NNC(=O)c1ccc(N)cc1" ?
101 % of control

Likewise for "CC(=O)NCc1ccccc1" ?
92 % of control

Likewise for "Clc1ccc(N=Cc2ccccc2Cl)cc1" ?
92 % of control

Likewise for "COc1ccc([N+](=O)[O-])c2conc12" ?
103 % of control

Likewise for "O=C(O)/C=C/C(=O)Nc1ccc(N=Nc2ccccc2)cc1" ?
89 % of control

Likewise for "COc1ccccc1OCC(C)=O" ?
105 % of control

Likewise for "NCC(=O)Nc1ccc(Cl)cc1C(=O)c1ccc[nH]1" ?
87 % of control

Likewise for "O=[N+]([O-])c1ccc(N/N=C(\CCc2ccccc2)c2ccccc2)c([N+](=O)[O-])c1" ?
86 % of control

Likewise for "Cc1cnc(C#N)c(Cl)n1" ?
101 % of control

###

# Tested on: L1210 leukemia ip in BDF1 mice, survival T/C
# measurement_notes: NCI In Vivo Anticancer Drug Screen. Data for tumor model L1210 Leukemia (intraperitoneal) in B6D2F1 (BDF1) mice
# assay_conditions: endpoint: mean survival time; dose: 400.0 mg/kg/injection; schedule: Q01DX009 (ip); vehicle: Klucel (hydroxypropylcellulose) (HPC); higher = longer survival
Inconclusive results and toxic doses are left out.
measured_endpoint: T/C

Data request, read-out T/C, for "Clc1ccc(N=Cc2ccc3c(c2)OCO3)c(Cl)c1"
96 % of control

Likewise for "O=[N+]([O-])c1ccc2nc(-c3ccccc3)c(-c3ccccc3)nc2c1" ?
96 % of control

Likewise for CC1C2c3ccccc3C(c3ccccc32)C1S(=O)(=O)F (stereo not given) ?
106 % of control

Likewise for "NC(=O)c1ccccc1NC(=O)Nc1c(Cl)cccc1Cl" ?
120 % of control

Likewise for "c1ccc2cc(N=Nc3ccc4ccccc4c3)ccc2c1" ?
102 % of control

Likewise for "O=C(O)/C=C/C(=O)Nc1ccccc1" ?
100 % of control

Likewise for "O=C(N/N=C/c1ccc(Cl)cc1Cl)c1cccc([N+](=O)[O-])c1" ?
94 % of control

Likewise for "Cc1ccc(C(=O)c2cccc([N+](=O)[O-])c2)cc1" ?
98 % of control

Likewise for "CC(C)=C(Cl)c1c(C)cc(C)c(CC(N)=O)c1C" ?
96 % of control

Likewise for "CSc1ncc(C(=O)O)c(=O)[nH]1" ?
88 % of control

Likewise for "CSc1ccc(NC(=O)Oc2cc(C)ccc2C(C)C)cc1" ?
91 % of control

Likewise for "O=C1c2ccccc2S(=O)(=O)N1CCCBr" ?
89 % of control

Likewise for "Cc1cc(Cl)ccc1NC(=O)Nc1cccc(F)c1" ?
86 % of control

Likewise for "CCOC(=O)CCCN(c1ccccc1CC(=O)OCC)S(C)(=O)=O" ?
97 % of control

Likewise for "CC(C)C(O)(C(=O)NN)C(=O)NN" ?
93 % of control

Likewise for "CC(=O)N(C)c1ccc(NC(=O)Nc2cc(C(F)(F)F)ccc2Cl)cc1" ?
94 % of control

Likewise for Nc1ccccc1SC1CC(=O)N(c2ccc(Br)cc2Cl)C1=O (stereo not given) ?
96 % of control

Likewise for "CNC(=S)N/N=C/c1ccc(OC)c(OC)c1OC" ?
98 % of control

Likewise for "c1cncc(SC23CC4CC(CC(C4)C2)C3)c1" ?
106 % of control

Likewise for "COc1ccc(OC)c(NC(=O)SCCSC(=O)Nc2cc(OC)ccc2OC)c1" ?
92 % of control

Likewise for "Cc1cccc(C)c1NC(=O)Nc1ncccn1" ?
101 % of control

Likewise for "Cc1cccc(NC(=O)Nc2ccccc2)c1C" ?
104 % of control

Likewise for "COc1cc([N+](=O)[O-])ccc1NC(=O)Nc1ccccc1F" ?
89 % of control

Likewise for "CSc1ccc(C(=NO)c2ccc(SC)cc2)cc1" ?
95 % of control

Likewise for CN(C)N=Nc1ccc(C(=O)OC2CCC3C4CCC5=CC(=O)CCC5(C)C4CCC23C)cc1 (stereo not given) ?
97 % of control

###

For each record, write down the corresponding T/C.
# System: L1210 leukemia ip in BDF1 mice, survival T/C
# measurement_notes: NCI In Vivo Anticancer Drug Screen. Data for tumor model L1210 Leukemia (intraperitoneal) in B6D2F1 (BDF1) mice
# assay_conditions: endpoint: mean survival time; dose: 400.0 mg/kg/injection; schedule: Q01DX009 (ip); vehicle: saline; higher = longer survival
Toxic doses and inconclusive results are not listed.

Data request, read-out T/C, for OCC12CCCCC1CC1(CC2)OCCO1 (stereo unspecified)
107 % of control

Likewise for "CC(C)(C)CC(C)(C)c1ccc(OCCOc2ccc(S(=O)(=O)O)cc2[N+](=O)[O-])cc1" ?
100 % of control

Likewise for "CC1(C)Cc2cc3cc(Cl)ccc3nc2-c2ccccc21" ?
100 % of control

Likewise for CC12CC3(O)CCC1CCC2C(=O)C3 (stereo unspecified) ?
96 % of control

Likewise for "CCN(CC)C(=O)Cn1cc(F)c(N)nc1=O" ?
94 % of control

Likewise for "O=C1c2cccc(O)c2C(=O)c2c(O)cccc21" ?
103 % of control

Likewise for "CN(C)/N=C/c1ccccc1O" ?
96 % of control

Likewise for O=C(O)C1C2CCCCC21 (stereo unspecified) ?
90 % of control

Likewise for "O=C1CN(CO)C(=O)CN1CO" ?
106 % of control

Likewise for CC(N)C(=O)NCC(=O)NCC(=O)O (stereo unspecified) ?
98 % of control

Likewise for "CCCCS(=O)(=O)N1CCCCC1" ?
106 % of control
